- Tested System: Mmp7 (rat)
- Protocol Text: reporter assay of Huesken 2005
- Assay Setup: siRNA
Oligonucleotides are given in HELM: sugar(base)linkage, 5' to 3'; d 2'-deoxyribose, r ribose, m 2'-O-methylribose, p phosphate. ss, as = sense and antisense strand
# label = Yes if normalised inhibition (eCFP-eYFP dual reporter) >= 90% else No

{"columns": ["Substance", "Tested System", "Group Label"],
 "data": [
  ["RNA1{r(G)p.r(A)p.r(U)p.r(G)p.r(U)p.r(U)p.r(G)p.r(C)p.r(A)p.r(G)p.r(A)p.r(A)p.r(U)p.r(U)p.r(C)p.r(U)p.r(C)p.r(A)p.r(C)p.d(T)p.d(T)}|RNA2{r(G)p.r(U)p.r(G)p.r(A)p.r(G)p.r(A)p.r(A)p.r(U)p.r(U)p.r(C)p.r(U)p.r(G)p.r(C)p.r(A)p.r(A)p.r(C)p.r(A)p.r(U)p.r(C)p.d(T)p.d(G)}$$$RNA1{StrandType:ss}|RNA2{StrandType:as}$", "Mmp7 (rat)", "Yes"],
  ["RNA1{r(C)p.r(A)p.r(G)p.r(U)p.r(G)p.r(C)p.r(A)p.r(G)p.r(U)p.r(G)p.r(G)p.r(A)p.r(C)p.r(A)p.r(A)p.r(A)p.r(C)p.r(U)p.r(G)p.d(T)p.d(T)}|RNA2{r(C)p.r(A)p.r(G)p.r(U)p.r(U)p.r(U)p.r(G)p.r(U)p.r(C)p.r(C)p.r(A)p.r(C)p.r(U)p.r(G)p.r(C)p.r(A)p.r(C)p.r(U)p.r(G)p.d(G)p.d(T)}$$$RNA1{StrandType:ss}|RNA2{StrandType:as}$", "Mmp7 (rat)", "Yes"],
  ["RNA1{r(A)p.r(C)p.r(U)p.r(C)p.r(A)p.r(G)p.r(G)p.r(C)p.r(G)p.r(U)p.r(G)p.r(A)p.r(A)p.r(C)p.r(U)p.r(U)p.r(C)p.r(C)p.r(U)p.d(T)p.d(T)}|RNA2{r(A)p.r(G)p.r(G)p.r(A)p.r(A)p.r(G)p.r(U)p.r(U)p.r(C)p.r(A)p.r(C)p.r(G)p.r(C)p.r(C)p.r(U)p.r(G)p.r(A)p.r(G)p.r(U)p.d(C)p.d(C)}$$$RNA1{StrandType:ss}|RNA2{StrandType:as}$", "Mmp7 (rat)", "No"],
  ["RNA1{r(A)p.r(C)p.r(A)p.r(G)p.r(G)p.r(C)p.r(G)p.r(C)p.r(A)p.r(G)p.r(A)p.r(A)p.r(U)p.r(U)p.r(A)p.r(U)p.r(C)p.r(U)p.r(U)p.d(T)p.d(T)}|RNA2{r(A)p.r(A)p.r(G)p.r(A)p.r(U)p.r(A)p.r(A)p.r(U)p.r(U)p.r(C)p.r(U)p.r(G)p.r(C)p.r(G)p.r(C)p.r(C)p.r(U)p.r(G)p.r(U)p.d(T)p.d(C)}$$$RNA1{StrandType:ss}|RNA2{StrandType:as}$", "Mmp7 (rat)", "No"]
]}

====

- Tested System: Cacnb1 (rat)
- Protocol Text: reporter assay of Huesken 2005
- Assay Setup: siRNA
Oligonucleotides are given in HELM: sugar(base)linkage, 5' to 3'; d 2'-deoxyribose, r ribose, m 2'-O-methylribose, p phosphate. ss, as = sense and antisense strand
Overview of recorded normalised inhibition (eCFP-eYFP dual reporter) for various substances
Observed Property: normalised inhibition (eCFP-eYFP dual reporter) (%)

{"columns": ["Substance", "Quantity Unit", "Reported Value"],
 "data": [
  ["RNA1{r(C)p.r(G)p.r(A)p.r(A)p.r(A)p.r(C)p.r(U)p.r(C)p.r(U)p.r(G)p.r(U)p.r(C)p.r(U)p.r(A)p.r(C)p.r(A)p.r(C)p.r(G)p.r(G)p.d(T)p.d(T)}|RNA2{r(C)p.r(C)p.r(G)p.r(U)p.r(G)p.r(U)p.r(A)p.r(G)p.r(A)p.r(C)p.r(A)p.r(G)p.r(A)p.r(G)p.r(U)p.r(U)p.r(U)p.r(C)p.r(G)p.d(G)p.d(C)}$$$RNA1{StrandType:ss}|RNA2{StrandType:as}$", "%", 44],
  ["RNA1{r(C)p.r(C)p.r(U)p.r(U)p.r(A)p.r(G)p.r(C)p.r(C)p.r(C)p.r(A)p.r(G)p.r(C)p.r(U)p.r(C)p.r(G)p.r(A)p.r(G)p.r(A)p.r(A)p.d(T)p.d(T)}|RNA2{r(U)p.r(U)p.r(C)p.r(U)p.r(C)p.r(G)p.r(A)p.r(G)p.r(C)p.r(U)p.r(G)p.r(G)p.r(G)p.r(C)p.r(U)p.r(A)p.r(A)p.r(G)p.r(G)p.d(C)p.d(C)}$$$RNA1{StrandType:ss}|RNA2{StrandType:as}$", "%", 76.8]
]}
